Would you kindly list melting point for each of these compounds?

[ask] For the compound shown here, CCOC1=Nc2ccc(Cl)cc2C(c2ccccc2Cl)=NC1OC (stereo not given) , give the reported melting point.
[reply] 110 to 113 °C

[ask] For the compound shown here, `O=S1(=O)N=C(OCc2snc(Cl)c2Cl)c2ccccc21` , give the reported melting point.
[reply] 165 to 167 °C

[ask] For the compound shown here, `Cc1c(N2CC[C@H]([C@@H](C)NC(=O)OC(C)(C)C)C2)c(F)cc2c(=O)n(N)c(=O)n(C3CC3)c12` , give the reported melting point.
[reply] 84 to 86 °C

[ask] For the compound shown here, `CC(=NOCC1CC1)c1cc(Cl)ccc1NS(=O)(=O)C(F)(F)F` , give the reported melting point.
[reply] 53 to 54 °C

[ask] For the compound shown here, `Cn1ncc(/C=C/C(=O)Nc2ccc(OCc3cscn3)cc2)c1-c1ccc(F)cc1` , give the reported melting point.
[reply] 171 to 172 °C

* * *

Reported property: melting point

[ask] For the molecule shown here, C=CC(=O)N1CCc2cc(OC)c(OC)cc2C12CCC(C(=O)OCC)(C(=O)OCC)CC2C1c2cc(OC)c(OC)cc2CCN1CC (stereo not drawn) , give the reported melting point.
[reply] 150 to 151 °C

[ask] For the molecule shown here, `COC(=O)c1ccc(Cn2c(=O)c(C)c3sc(C(=O)NCc4ccc(OC)cc4)cn3c2=O)cc1` , give the reported melting point.
[reply] 163 to 165 °C

[ask] For the molecule shown here, O=C1NC(=O)C(Nc2ccc(CCNCC(O)c3cccnc3)cc2)S1 (stereo not drawn) , give the reported melting point.
[reply] 46 to 48 °C

[ask] For the molecule shown here, `Cc1cc(-n2nc(C#N)cc2-c2ccc(S(C)(=O)=O)cc2)ccc1Cl` , give the reported melting point.
[reply] 163 to 164 °C

[ask] For the molecule shown here, `CCC(=O)NCCC1=CCC2=C1C1=C(CC2)OCCC1` , give the reported melting point.
[reply] 85 to 88 °C

[ask] For the molecule shown here, `Cc1ccc2c(=O)nc(-c3cccc(CCC(=O)OC(C)(C)C)n3)sc2c1` , give the reported melting point.
[reply] 135 °C

[ask] For the molecule shown here, `CCOC(=O)COc1ccccc1C(=O)Nc1ccc(O)cc1` , give the reported melting point.
[reply] 208 to 210 °C

[ask] For the molecule shown here, `COC(=O)c1ccccc1OCNC(=O)OC(C)(C)C` , give the reported melting point.
[reply] 95 to 96 °C

[ask] For the molecule shown here, `CCCCOc1c(OC)cc(C(=O)O)cc1[N+](=O)[O-]` , give the reported melting point.
[reply] 114 to 115 °C

[ask] For the molecule shown here, `COC(=O)COc1c(C)cc(SCc2sc(-c3ccc(C(F)(F)F)cc3)nc2C)cc1C` , give the reported melting point.
[reply] 104 to 105 °C

[ask] For the molecule shown here, `CCCCCS(=O)(=O)NC(=O)/C=C/c1ccc(OCCC2(C)OCCO2)cc1Oc1ncc(C(F)(F)F)cc1Cl` , give the reported melting point.
[reply] 90 to 92 °C

[ask] For the molecule shown here, `CCCc1ccccc1OCCCCCOc1ccc2c(=O)cc(C(=O)OCC)oc2c1CCC` , give the reported melting point.
[reply] 73 to 75 °C

[ask] For the molecule shown here, CCCCNS(=O)(=O)CC(O)C(O)C(CC1CCCCC1)NC(=O)c1ccccn1 (stereo not drawn) , give the reported melting point.
[reply] 167 to 170 °C

[ask] For the molecule shown here, `O=C(c1ccc(Nc2ccnc3cc(C(F)(F)F)ccc23)cc1)N1CCN(S(=O)(=O)c2ccc(Cl)cc2)CC1` , give the reported melting point.
[reply] 234 to 236 °C

[ask] For the molecule shown here, `CCOC(=O)c1nc(-c2ccc(OC)cc2)oc1C` , give the reported melting point.
[reply] 74 to 76 °C

[ask] For the molecule shown here, `Nc1cc(C#Cc2ccccc2)c(-c2cc([N+](=O)[O-])c(N)cc2C#Cc2ccccc2)cc1[N+](=O)[O-]` , give the reported melting point.
[reply] 252 to 253 °C

[ask] For the molecule shown here, `COc1ccc(S(=O)(=O)N(C)C)cc1C(=O)NCc1ccc(OCCN(C)C)cc1` , give the reported melting point.
[reply] 99.5 to 100 °C

[ask] For the molecule shown here, O=C(NCc1ccccn1)Nc1cc(N2CC(COc3ccccc3)CC2=O)ccn1 (stereo not drawn) , give the reported melting point.
[reply] 135 to 137 °C
